assay: NCOA3 reporter inhibition potency – cell-based, luminescence, counter-screen for SRC1 inhibitor project, dose response (AID 602234); conditions: transfected HEK293 cells, counter-screen luciferase reporter;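 further: HEK293 cells co-transfected with pGL4.31 reporter and pBIND-SRC3 fusion vector; potency for inhibition of reporter luminescence with Gossypol as full inhibition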
The source made the active and inactive calls. How the calls were made is not given here.
Labels: active, inactive

>>> discrete_label("COc1cc(C(=O)NC(=S)NNC(=O)c2cnccn2)cc(OC)c1OC")
"active"
>>> discrete_label("CCN(c1ccccc1)S(=O)(=O)c1cc(C(=O)Nc2ccc(Br)cc2)ccc1F")
"active"
>>> discrete_label("Cc1cccn2c(=O)c3cc(C(=O)NCCN4CCOCC4)c(=N)n(Cc4cccnc4)c3nc12")
"inactive"
>>> discrete_label("O=C1CCC/C1=c1\\s/c(=C/c2cccnc2)c(=O)n1-c1ccccc1")
"active"
>>> discrete_label("COc1ccc(-n2cnc(N)c2C(=O)c2cccc([N+](=O)[O-])c2)cc1")
"active"
>>> discrete_label("COC(=O)N(NC(=O)C(O)(CCC(C)C)CCC(C)C)c1ccccc1")
"inactive"
>>> discrete_label("CCOc1cccc(/C=N/NC(=O)c2cc(C3CC3)[nH]n2)c1O")
"inactive"
>>> discrete_label("CCCCN(CCCC)c1ncnc2nc[nH]c12")
"active"
>>> discrete_label("O=C(CCC(=O)Nc1ccc(Br)cc1)N/N=C/c1ccccc1O")
"active"
>>> discrete_label("Cc1cccc(C)c1-n1nnnc1C(c1cccs1)N1CCC2(CC1)C(=O)NCN2c1ccccc1 (stereo not given)")
"inactive"

Cited source for all entries: PubChem BioAssay AID602234
